- ASSAYED_TARGET: MAL^TIR (Homo sapiens, UniProt P58753)
- Construct: MAL (residues 79–221); 6xHis; made in house; host or cells: E. coli BL21 (DE3)
- Sequence (P58753 79-221): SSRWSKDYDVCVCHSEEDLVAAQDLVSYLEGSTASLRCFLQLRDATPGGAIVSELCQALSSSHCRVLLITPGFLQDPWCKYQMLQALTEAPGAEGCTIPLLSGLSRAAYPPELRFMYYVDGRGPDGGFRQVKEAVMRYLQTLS
- EXPERIMENT_DESCRIPTION: T‐Surf phage library (P8 and P3) selection against MAL^TIR, four rounds, NGS read counts
- Format: binding
- MEASUREMENT_PARAMETERS: P8_MAL: rank by count before grouping
Quick reference: Rank (before) of the listed items.
PROPERTY_LABEL: Rank (before)

{"RESIDUE_STRING": "RNFGVYLFQALANKGI", "ASSAYED_TARGET": "MAL^TIR (Homo sapiens, UniProt P58753)", "RESULT": 2238}
{"RESIDUE_STRING": "YFLHSCCLAVRKPSI", "ASSAYED_TARGET": "MAL^TIR (Homo sapiens, UniProt P58753)", "RESULT": 1511}
{"RESIDUE_STRING": "WFYERLVSLMLRDKKV", "ASSAYED_TARGET": "MAL^TIR (Homo sapiens, UniProt P58753)", "RESULT": 1269}
{"RESIDUE_STRING": "TFLGHLYNTLVQASIF", "ASSAYED_TARGET": "MAL^TIR (Homo sapiens, UniProt P58753)", "RESULT": 2537}
{"RESIDUE_STRING": "AFLYTFLVNLTHPTMF", "ASSAYED_TARGET": "MAL^TIR (Homo sapiens, UniProt P58753)", "RESULT": 1823}
{"RESIDUE_STRING": "TFLCHLYSTLVQARIH", "ASSAYED_TARGET": "MAL^TIR (Homo sapiens, UniProt P58753)", "RESULT": 2546}
{"RESIDUE_STRING": "SFLHFLLFSRPDTEYI", "ASSAYED_TARGET": "MAL^TIR (Homo sapiens, UniProt P58753)", "RESULT": 1436}
{"RESIDUE_STRING": "SAAYDDFWDRLIRMIE", "ASSAYED_TARGET": "MAL^TIR (Homo sapiens, UniProt P58753)", "RESULT": 1007}
{"RESIDUE_STRING": "WFYERLVCLLLRDSKV", "ASSAYED_TARGET": "MAL^TIR (Homo sapiens, UniProt P58753)", "RESULT": 1279}
{"RESIDUE_STRING": "RNIVAYPFQALANIGI", "ASSAYED_TARGET": "MAL^TIR (Homo sapiens, UniProt P58753)", "RESULT": 2252}
{"RESIDUE_STRING": "WLYERLVSLILRDTQV", "ASSAYED_TARGET": "MAL^TIR (Homo sapiens, UniProt P58753)", "RESULT": 1426}
{"RESIDUE_STRING": "WLYVRLVSLILRDTKV", "ASSAYED_TARGET": "MAL^TIR (Homo sapiens, UniProt P58753)", "RESULT": 1392}
{"RESIDUE_STRING": "SFYERLVRLILRDTTV", "ASSAYED_TARGET": "MAL^TIR (Homo sapiens, UniProt P58753)", "RESULT": 1444}
{"RESIDUE_STRING": "TFLATLYNALAQAGIH", "ASSAYED_TARGET": "MAL^TIR (Homo sapiens, UniProt P58753)", "RESULT": 2620}
{"RESIDUE_STRING": "AFFWPQLKSVLGNPTK", "ASSAYED_TARGET": "MAL^TIR (Homo sapiens, UniProt P58753)", "RESULT": 1715}
{"RESIDUE_STRING": "TFLGHLYNTLVHAGTH", "ASSAYED_TARGET": "MAL^TIR (Homo sapiens, UniProt P58753)", "RESULT": 2600}
{"RESIDUE_STRING": "WFYERLVSMVLRDTKV", "ASSAYED_TARGET": "MAL^TIR (Homo sapiens, UniProt P58753)", "RESULT": 1287}
{"RESIDUE_STRING": "LFFWEILKQLLRSAGR", "ASSAYED_TARGET": "MAL^TIR (Homo sapiens, UniProt P58753)", "RESULT": 2074}

* * *

- ASSAYED_TARGET: MyD88^TIR (Homo sapiens)
- Construct: MyD88 (residues 148–296); 6xHis; made in house; host or cells: E. coli BL21 (DE3)
- EXPERIMENT_DESCRIPTION: T‐Surf phage library (P8 and P3) selection against MyD88^TIR, four rounds, NGS read counts
- Format: binding
- MEASUREMENT_PARAMETERS: P8 library, 4R selection against MyD88, rank before grouping
Quick reference: P8_MyD88 Rank (before) of the listed items.

{"RESIDUE_STRING": "DPQGLVCYYERLVSLL", "P8_MyD88 Rank (before)": 2662}
{"RESIDUE_STRING": "HWIDWVWDYLLPNLEGPAG", "P8_MyD88 Rank (before)": 3518}
{"RESIDUE_STRING": "DPQDMEWFYERLVSLIL", "P8_MyD88 Rank (before)": 2975}
{"RESIDUE_STRING": "DPQVLEWIYARLFSQM", "P8_MyD88 Rank (before)": 2649}
{"RESIDUE_STRING": "LGFNWMDWEYFVGIEG", "P8_MyD88 Rank (before)": 3216}
{"RESIDUE_STRING": "DPQELECLYERLFSQM", "P8_MyD88 Rank (before)": 2991}

* * *

- ASSAYED_TARGET: MAL^TIR (Homo sapiens, UniProt P58753)
- Construct: MAL (residues 79–221); 6xHis; made in house; host or cells: E. coli BL21 (DE3)
- EXPERIMENT_DESCRIPTION: T‐Surf phage library (P8 and P3) selection against MAL^TIR, four rounds, NGS read counts
- Format: binding
- MEASUREMENT_PARAMETERS: P3 library, selection against MAL, rank before grouping
Param threshold (2000) applies to P3_MAL Rank (before); output label 1 when value >= threshold, label 0 when value < threshold.

{"RESIDUE_STRING": "KNLFNEMVSKNIRTYM", "CLASS_ASSIGNMENT": "label 1"}
{"RESIDUE_STRING": "VEPTQGRKQLGAVENA", "CLASS_ASSIGNMENT": "label 0"}
{"RESIDUE_STRING": "YAFTRHLHRYLVQRAA", "CLASS_ASSIGNMENT": "label 0"}
{"RESIDUE_STRING": "RSFREGLWRLLELRKQ", "CLASS_ASSIGNMENT": "label 1"}
{"RESIDUE_STRING": "SSFREGLWRWRELRKK", "CLASS_ASSIGNMENT": "label 1"}
{"RESIDUE_STRING": "RGVLSRLRHHLQAKDH", "CLASS_ASSIGNMENT": "label 1"}
{"RESIDUE_STRING": "RGFLSHLRHHLPAKDQ", "CLASS_ASSIGNMENT": "label 1"}
{"RESIDUE_STRING": "PYLRTQVLNYLMRTKN", "CLASS_ASSIGNMENT": "label 1"}
{"RESIDUE_STRING": "LVAHEISKKMKIFCDH", "CLASS_ASSIGNMENT": "label 1"}
{"RESIDUE_STRING": "NQWRNALTAAAKLKAPI", "CLASS_ASSIGNMENT": "label 1"}
{"RESIDUE_STRING": "PNLRTQVQNYLLPNKT", "CLASS_ASSIGNMENT": "label 1"}
{"RESIDUE_STRING": "YAFTGHLRRYLVLRGV", "CLASS_ASSIGNMENT": "label 0"}
{"RESIDUE_STRING": "YAFTGYLHRYVVQRGV", "CLASS_ASSIGNMENT": "label 0"}
{"RESIDUE_STRING": "HPKGSYREALAEHEKR", "CLASS_ASSIGNMENT": "label 1"}
{"RESIDUE_STRING": "KERLHQWKLALTQAA", "CLASS_ASSIGNMENT": "label 1"}
{"RESIDUE_STRING": "PNLRPKVRNYLIRTKT", "CLASS_ASSIGNMENT": "label 1"}
{"RESIDUE_STRING": "RGFLSHRRYHLQAKDH", "CLASS_ASSIGNMENT": "label 1"}

* * *

- ASSAYED_TARGET: MyD88^TIR (Homo sapiens, UniProt Q99836)
- Construct: MyD88 (residues 148–296); 6xHis; made in house; host or cells: E. coli BL21 (DE3)
- Sequence (Q99836 148-296): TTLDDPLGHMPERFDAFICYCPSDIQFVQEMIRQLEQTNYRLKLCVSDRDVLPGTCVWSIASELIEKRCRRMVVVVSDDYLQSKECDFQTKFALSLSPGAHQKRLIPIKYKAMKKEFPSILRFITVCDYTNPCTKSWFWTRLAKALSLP
- EXPERIMENT_DESCRIPTION: T‐Surf phage library (P8 and P3) selection against MyD88^TIR, four rounds, NGS read counts
- Format: binding
- MEASUREMENT_PARAMETERS: P8 library, selection against MyD88 TIR; rank by count before grouping
Param threshold (400) applies to P8_MyD88 Rank (before); output yes (1) when value >= threshold, no (0) when value < threshold.

{"RESIDUE_STRING": "LKWGDERFWERLVYVM", "CLASS_ASSIGNMENT": "no (0)"}
{"RESIDUE_STRING": "SSTWALDELERILEYM", "CLASS_ASSIGNMENT": "no (0)"}
{"RESIDUE_STRING": "LGYHWIDWEYFVALK", "CLASS_ASSIGNMENT": "yes (1)"}
{"RESIDUE_STRING": "DPQALDWLYERLVSLF", "CLASS_ASSIGNMENT": "yes (1)"}
{"RESIDUE_STRING": "DPQDREWFYERLVSLF", "CLASS_ASSIGNMENT": "yes (1)"}
{"RESIDUE_STRING": "WPEDYQDIGWFLDNLS", "CLASS_ASSIGNMENT": "no (0)"}
{"RESIDUE_STRING": "WALDLDWFYERLVSLF", "CLASS_ASSIGNMENT": "yes (1)"}
{"RESIDUE_STRING": "EWALHQLQQIIKWHQT", "CLASS_ASSIGNMENT": "no (0)"}
{"RESIDUE_STRING": "SMMPSSDFWKELALAL", "CLASS_ASSIGNMENT": "no (0)"}
{"RESIDUE_STRING": "YLLLGVFQTIFARRTA", "CLASS_ASSIGNMENT": "yes (1)"}
{"RESIDUE_STRING": "ELDGDFGRNLWDLWRL", "CLASS_ASSIGNMENT": "yes (1)"}
{"RESIDUE_STRING": "DPQDLEWFYERLGSLF", "CLASS_ASSIGNMENT": "yes (1)"}
{"RESIDUE_STRING": "WMRALAYIVNIVGESS", "CLASS_ASSIGNMENT": "yes (1)"}
{"RESIDUE_STRING": "WEDVRINFLSHFLKEL", "CLASS_ASSIGNMENT": "yes (1)"}
{"RESIDUE_STRING": "WDFASSTWWLRELLQIA", "CLASS_ASSIGNMENT": "yes (1)"}
{"RESIDUE_STRING": "ELDFSHFWLFDGQSGKDA", "CLASS_ASSIGNMENT": "no (0)"}
{"RESIDUE_STRING": "LGYHWIDWAYFVGIEE", "CLASS_ASSIGNMENT": "yes (1)"}
{"RESIDUE_STRING": "DPQDLEWFYERLVSLFL", "CLASS_ASSIGNMENT": "yes (1)"}
{"RESIDUE_STRING": "DPQALAWFYERLVSLF", "CLASS_ASSIGNMENT": "yes (1)"}
{"RESIDUE_STRING": "DWVWDYLLPNLEGQR", "CLASS_ASSIGNMENT": "yes (1)"}
{"RESIDUE_STRING": "YELDFSHFWLFDGQAGGEA", "CLASS_ASSIGNMENT": "yes (1)"}
{"RESIDUE_STRING": "DPQDLDWFYERLFTQM", "CLASS_ASSIGNMENT": "yes (1)"}
{"RESIDUE_STRING": "ELDFSHFWLFDGDAGEEP", "CLASS_ASSIGNMENT": "yes (1)"}
{"RESIDUE_STRING": "FFWMQLRSLLGTPGGL", "CLASS_ASSIGNMENT": "no (0)"}
{"RESIDUE_STRING": "YLMWPQEEEEIPLFWH", "CLASS_ASSIGNMENT": "yes (1)"}
{"RESIDUE_STRING": "ENYAFSSWALGELLHI", "CLASS_ASSIGNMENT": "no (0)"}
{"RESIDUE_STRING": "WALDELLKILYARELF", "CLASS_ASSIGNMENT": "yes (1)"}
{"RESIDUE_STRING": "FRGEDIADNFLSHLVVAL", "CLASS_ASSIGNMENT": "no (0)"}
{"RESIDUE_STRING": "WRDVLKYIANLSGWDS", "CLASS_ASSIGNMENT": "yes (1)"}
{"RESIDUE_STRING": "PQDLEWLYERLVRLIL", "CLASS_ASSIGNMENT": "yes (1)"}
{"RESIDUE_STRING": "WVFQTLYSTLEDEYAF", "CLASS_ASSIGNMENT": "no (0)"}
{"RESIDUE_STRING": "DPHDLVWFYERLVSLF", "CLASS_ASSIGNMENT": "yes (1)"}
{"RESIDUE_STRING": "DPQGLGWFYERLVSLF", "CLASS_ASSIGNMENT": "yes (1)"}
{"RESIDUE_STRING": "DWVWDYLLPNLEGPG", "CLASS_ASSIGNMENT": "yes (1)"}
{"RESIDUE_STRING": "DPQDLEWFYERPVSLF", "CLASS_ASSIGNMENT": "yes (1)"}
{"RESIDUE_STRING": "YYDSRWALDELLQILHARELF", "CLASS_ASSIGNMENT": "yes (1)"}
